- target_entity: VP1 capsid protein on BKV pseudovirions of genotype Ia (BK-D; JF894228) (BK virus genotype Ia (BK-D))
- procedure_details: cell-based or functional assay
parameter: Neutralization PSV IC50 (µg/mL)
Provide only the numeric value, understood in µg/mL.

Answer with the recorded Neutralization PSV IC50 for the binder listed here: antibody E9P7 (antibody, V domains shown) VH: EVQLVESGGGLVQPGGSLRLSCTASGFTFRSYTMDWVRQAPGKGLEWVSCISGSSNHKYYADSVRGRFTISRDNAKNSLLLQMNSLRAEDSAVYYCAREDDILTPLYGMDVWGPGTTVTVSS VL: EIVLTQSPDTLSLSPGARATLSCRASQSVRSNYLAWYQQKPGQAPRLLIYGASSRATAIPDRFSGSGSGTDFTLTITRLEPEDFAVYYCHQYGSSPRTFGQGTKVEIK
0.277

Answer with the recorded Neutralization PSV IC50 for the binder listed here: antibody C6P8 (antibody, V domains shown) VH: EVQLVESGGGLVQPGGSLKLSCAASGFTFSGSEIHWVRQASGKGLEWIGRVRSRANRHATGYSESVKGRFTISRDDSKNTASLQLNSLKIEDTAVYYCTGVRGVISRYFAMDVWGQGTTVTVSS VL: SYVLTQTPSVSVAPGQTARITCGGNNIGSNSVHWYQQKPGQAPILVVYDDSERPSGIPERFSGSNSGNTATLTISRVEGGDEADYQCQVWDRRGDLLVFGGGTKLTVL
6.92

Answer with the recorded Neutralization PSV IC50 for the binder listed here: antibody B9P4 (antibody, V domains shown) VH: EVQLVESGGGVVQPGRSLRLSCAASGFTFSSYGMHWVRQAPGKGLEWVAVISKDGSNKYEADFVKGRFTISRDNSKNTLYLQMNSLRAEDTAVYYCAKIPLRRYSDSGDYSSGDFWGQGTLVTVSS VL: DVVMTQSPLSLTVTLGQPASISCRSSENLVYSDGNTYLSWFQQRPGQSPRRLIYKVSTRDSGVPDRFSGSGSGTDFTLKISRVEAEDVGVYYCMQTTHWPPLTFGGGTKVEIK
4.96

Answer with the recorded Neutralization PSV IC50 for the binder listed here: antibody G5P6 (antibody, V domains shown) VH: QVQLVQSGAEVKKPGASVKVSCKASGYTFTTHIIHWVRQAPGQRLEWMGWINAGNGNTKYSEKFQGRVTLTRDTSASTAYMELSSLRSEDTAIYYCAREDQWLGRSPLEYWGQGTLVTVSS VL: EIVLTQSPGTLSLSPGERATLSCRASQSVSSSYLAWYQHKPGQAPRLLIYGASSRATGIPDRFSGSGSGTDFTLTVSRLEPEDFAVYYCQQYGNSYPWTFGQGTKVEIK
0.299

Answer with the recorded Neutralization PSV IC50 for the binder listed here: antibody G7P7 (antibody, V domains shown) VH: QVQLQESGPGLVRPSQTLSLTCTVSGGSMTSGSYYWSWIRQPAEKGLEWIGRIYTSGRTDYNPSLKSRVAMSIDTSKNQFSLRLTSVTAADTAVYYCARWGDSSAYYYVGDPWGRGTPVTVSS VL: DIQMTQSPSSLSASIGDRVTITCRASQNINTYLYWYQQKPGKAPQLLIYAASNLQTGAPSRFSGSGSGTDFTLTISSLQPADFATYYCQQSFSLPHTFGQGTKLEIK
12.5

Answer with the recorded Neutralization PSV IC50 for the binder listed here: antibody B7P3 (antibody, V domains shown) VH: EVQLVESGGGVVQPGRSLRLSCAASGFTFSNFGMHWVRQPPGKGLEWVAVISYDGSDKFYADSVKGRFTISRDNFKNTLYVQMNSLRAEDTAVYYCAKDRVRTKYYYDHSGPFDYWGRGTLVTVSS VL: SYVLTQPPSVSVAPGQTARIACGGNNIGSKSVHWYQQRPGQAPVLVVYDDDDRPSGIPERFSGSNSGNTATLTISRVEAGDEADYFCQVWMTNSDRPVFGGGTKLTVL
0.0004

Answer with the recorded Neutralization PSV IC50 for the binder listed here: antibody D11P7 (antibody, V domains shown) VH: EVQLVESGGGLVQPGGSLRLSCAASGFTFRSYTMDWVRQAPGKGLEWVSCISGSSNHKYYADSVRGRFTISRDNAKNSLFLQMNSLRAEDSAVYYCAREDDILTPLYGMDVWGPGTTVTVSS VL: QSALTQPASVSGSPGQSITISCTGTSSDVGAYNYVSWYRLRPGKDPHLIIYDVSHRPAGVSNRFSGSKSGNTASLTISGLQAEDEDEYYCCSYAHRGTPLFGGGTKLTVL
0.275

Answer with the recorded Neutralization PSV IC50 for the binder listed here: antibody E10P2 (antibody, V domains shown) VH: EVQLLESGGALVQPGGSLRLSCAASGFTFRSYAMNWVRQAPGKGLEWVSSLSSSGTTTYYADSVKGRFTISRDNSKNTMYLQMDSLRGEDTAVYYCAKDRNAQWLGSEPLDPWGQGTLVTVSS VL: EIVLTQSPGTLSLSPGERATLSCRASQSVSSSYLAWYQQKPGQAPRLLIYGASSRATGIPDRFSGSGSGTDFTLTISSLQPDDFAIYYCQQAYTFPWTFGQGTKLEIK
1.64

Answer with the recorded Neutralization PSV IC50 for the binder listed here: antibody G8P6 (antibody, V domains shown) VH: QVQLQESGPGLVRPSQTLSLTCTVSGGSMTSGSYYWSWIRQPAEKGLEWIGRIYTSGRTDYNPSLKSRVAMSIDTSKNQFSLRLTSVTAADTAVYYCARWGDSSAYYYVGDPWGRGTTVTVSS VL: DIQMTQSPSSLSASIGDRVTITCRASQNINTYLYWYQQKPGKAPQLLIYAASNLQTGAPSRFSGSGSGTDFTLTISSLQPADFATYYCQQSFSLPHTFGQGTKLEIK
6.44
